# System: arrhythmia in guinea-pigs after infusion of ouabain
# ASSAY INFO: Ouabain-induced arrhythmia in guinea-pigs
# REPORTED CONDITIONS: 3 mg/kg iv; 5 min. after adm.
OUTCOME MEASURE: HR ± SE, 5 min. after adm. of test compound

Some solved cases for reference:
{"COMPOUND": "CCCCNS(=O)(=O)CCN1C(=O)c2ccccc2C1=O [2-Phthalimidoethanesulfone n-butylamide]", "REPORTED": "213 beats/min."}
{"COMPOUND": "CCCNS(=O)(=O)CCN1C(=O)c2ccccc2C1=O [2-Phthalimidoethanesulfone n-propylamide]", "REPORTED": "294 ± 45 beats/min."}

Could I get HR ± SE, 5 min. after adm. of test compound for every one of these entries?
1. CCNS(=O)(=O)CCN1C(=O)c2ccccc2C1=O [2-Phthalimidoethanesulfone ethylamide]
2. CC(C)NS(=O)(=O)CCN1C(=O)c2ccccc2C1=O
3. CC(=O)NS(=O)(=O)CCN1C(=O)c2ccccc2C1=O [2-Phthalimidoethanesulfonyl acetamide, 2-phthalimidoethanesulfonyl acetamide]

(A)
["332 ± 16 beats/min.", "312 ± 27 beats/min.", "259 ± 10 beats/min."]
